Tested on: MDA-MB-231 breast
Experiment: NCI-60 one-dose screen, 48 h
Conditions: 10 µM unless noted
The panel holds about 83,000 compounds, 20% with a hit somewhere; the sample as a whole holds those more often. Active and inactive are the calls of the source. The calls were made as follows: active = growth percent below 10; inactive = the rest.
Your answer must be one of the following: active, inactive

Molecule | Assay Target | Answer Label
CC1=C(C)C[C@]2(C(=O)O[C@H]3CCCC[C@@H]32)[S@](=O)C1 | MDA-MB-231 breast | inactive
C=C(C)[C@@H]1CC[C@]2(COC(=O)c3ccccc3C(=O)O)CC[C@]3(C)[C@H](CC[C@@H]4[C@@]5(C)CCCNC(C)(C)[C@@H]5CC[C@]43C)[C@@H]12 | MDA-MB-231 breast | inactive

Incoming: How did this test come out for [N-]=[N+]=Nc1ncc(-c2ccc(C(F)(F)F)cc2)c(NC2CCCCCC2)n1 ?
Outgoing: inactive

Incoming: What is the recorded call for this molecule in the test? CCCCCCCCc1ccc(CCC(N)(CO)CO)cc1
Outgoing: active

Incoming: Which outcome was entered for the molecule COc1ccc(C(=O)NCCNc2nccc(-c3c(-c4ccc(F)cc4)nc4sccn34)n2)cc1 in this test?
Outgoing: inactive

Incoming: So what was the verdict on CC1CCCCC[N+]12CCCC2 (stereo unspecified) in this test?
Outgoing: inactive
